Below, each entry is listed with its recorded normalized growth.
- assay_notes: chemical genetic growth profiling, strain panel (AID 1159580);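 further: tested at 20 µM; growth read once vehicle control cultures reached saturation at 30 °C; 1 = growth at the plate median or of vehicle wells; lower values mean less growth of the strain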
- condition_context: S. cerevisiae deletion strains, growth OD, locus YNR049C, strain mso1, stronger effect = lower value
The campaign covered roughly 5,500 compounds. About 2,000 (36%) were called active. Not shown: some 18% with an inconclusive outcome. This is one part of the list.
Please give the numeric answer without any surrounding text.

1. O=c1c2cc(O)c(O)cc2oc2cc(O)c(C3O[C@H](CO)[C@H](O)[C@@H](O)[C@H]3O)c(O)c12 (some centres undefined) = 1.03
2. Oc1ccc([C@H]2Oc3cc(O)cc(O)c3C[C@H]2O)cc1 = 0.987
3. CCC(=O)OCC(=O)C1(OC(=O)CC)C(C)CC2C3CCC4=CC(=O)C=CC4(C)C3(Cl)C(O)CC21C (centres undefined) = 0.982

Attention now shifts to the item below.
Item CCCCC(=O)O[C@]1(C(=O)CO)[C@@H](C)CC2C3CCC4=CC(=O)C=C[C@]4(C)[C@@]3(F)C(O)C[C@@]21C (some centres undefined) has what recorded normalized growth?
0.983
